# Tested Target: T1, human VEGF (hVEGF) (human, UniProt P15692 181-395);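 also: fab variants flowed over hVEGF immobilized on a CM5 chip, rate constants from a one-to-one Langmuir fit, Kd taken as koff over kon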
# T1 construct: also called VEGF-A
# T1 sequence: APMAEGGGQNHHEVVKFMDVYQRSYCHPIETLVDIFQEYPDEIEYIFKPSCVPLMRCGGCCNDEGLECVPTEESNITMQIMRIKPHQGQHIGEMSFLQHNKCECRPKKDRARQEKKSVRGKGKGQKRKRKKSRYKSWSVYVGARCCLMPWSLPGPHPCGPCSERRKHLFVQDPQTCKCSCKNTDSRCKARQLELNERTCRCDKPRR
# Protocol Text: SPR

Binder | koff (s⁻¹)
HCcombo (Fab, V domains shown, Fab) VH: EEQLVEEGGGLVQPGESLELSCAASGFEISDYWIHWVRQEPGEGLEWVAGITPAGGYEYYADSVEGRFTISADTSENTAYLQMNELRAEDTAVYYCARFVFFLPYAMDYWGQGELVTVSS VL: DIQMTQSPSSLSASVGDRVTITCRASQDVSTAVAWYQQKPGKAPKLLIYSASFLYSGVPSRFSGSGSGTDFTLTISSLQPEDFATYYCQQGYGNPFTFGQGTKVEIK | 0.000274
R19HCLC4 (Fab, V domains shown, Fab) VH: EEQLVEEGGGLVQPGESLRLSCAASGFEISDYWIHWVRQEPGEGLEWVAGITPAGGYEYYADSVEGRFTISADTSENTAYLQMNELRAEDTAVYYCARFVFFLPYAMDYWGQGELVTVSS VL: DIQMTQSPSSLSASVGDEVTITCRASQDVSTAVAWYQQKPGKAPKLLIYSASFLYSGVPSRFSGSGSGTDFTLTISSLQPEDAATYYCQQGYGAPFTFGQGTKVEIK | 4.79e-05
G6.31 LC-N94A.LC-F83A (Fab, V domains shown, Fab; also called LC-F83A, LC-N94A; LCcombo5) VH: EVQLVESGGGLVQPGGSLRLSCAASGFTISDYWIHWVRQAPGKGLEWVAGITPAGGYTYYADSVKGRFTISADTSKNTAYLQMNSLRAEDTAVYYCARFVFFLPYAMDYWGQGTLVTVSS VL: DIQMTQSPSSLSASVGDRVTITCRASQDVSTAVAWYQQKPGKAPKLLIYSASFLYSGVPSRFSGSGSGTDFTLTISSLQPEDAATYYCQQGYGAPFTFGQGTKVEIK | 0.00111
HCLC5 (Fab, V domains shown, Fab) VH: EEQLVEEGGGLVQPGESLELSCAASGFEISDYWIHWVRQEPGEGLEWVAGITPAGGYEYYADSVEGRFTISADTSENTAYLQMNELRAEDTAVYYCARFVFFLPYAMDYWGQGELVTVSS VL: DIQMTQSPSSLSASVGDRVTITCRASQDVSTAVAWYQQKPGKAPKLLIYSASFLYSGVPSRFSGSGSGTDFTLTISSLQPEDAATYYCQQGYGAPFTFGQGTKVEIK | 0.000573

The measured values listed here are drawn from patent US20210115124A1.
